These data points were gathered from patent US20090186918A1.

# study target: UniProt P16050
# Sequence (P16050 whole entry): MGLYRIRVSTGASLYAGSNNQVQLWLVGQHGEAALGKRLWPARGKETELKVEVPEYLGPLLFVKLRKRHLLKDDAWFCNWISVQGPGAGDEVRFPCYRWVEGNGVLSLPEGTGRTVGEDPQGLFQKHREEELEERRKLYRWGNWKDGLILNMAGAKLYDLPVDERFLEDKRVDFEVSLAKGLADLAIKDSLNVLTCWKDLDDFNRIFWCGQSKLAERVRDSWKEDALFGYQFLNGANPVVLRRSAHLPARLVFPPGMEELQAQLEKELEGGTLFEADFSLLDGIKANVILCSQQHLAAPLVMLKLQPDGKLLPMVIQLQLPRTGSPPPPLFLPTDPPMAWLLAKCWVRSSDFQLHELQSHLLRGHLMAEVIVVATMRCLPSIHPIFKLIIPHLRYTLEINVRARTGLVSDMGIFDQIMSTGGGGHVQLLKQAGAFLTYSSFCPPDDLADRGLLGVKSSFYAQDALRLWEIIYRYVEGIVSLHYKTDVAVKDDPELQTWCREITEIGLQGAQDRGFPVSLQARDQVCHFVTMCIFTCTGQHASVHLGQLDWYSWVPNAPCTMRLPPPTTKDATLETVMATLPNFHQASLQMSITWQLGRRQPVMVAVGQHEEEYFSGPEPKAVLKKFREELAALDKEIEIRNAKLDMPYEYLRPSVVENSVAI
# procedure summary: 15-lipoxygenase inhibition assay (arachidonic acid oxidation, 15-HPETE/15-HETE measured by reverse phase HPLC)
# Format: biochemical
# protocol conditions: purified human 15-lipoxygenase, arachidonic acid substrate, room temperature; read-out: IC50
measurement label: IC50 (nM)

// below: answered molecules
- O=C(Nc1ccc(C(F)(F)F)cc1[N+](=O)[O-])c1c[nH]nn1: 3800
- O=C(Nc1ccc(Cl)cc1F)c1c[nH]nn1: 530
- O=C(Nc1ccc(Br)cn1)c1c[nH]nn1: 810
- O=C(Nc1cc(Cl)cc(Cl)c1)c1c[nH]nn1: 4100
- O=C(Nc1ccc(Cl)c(Cl)c1Cl)c1c[nH]nn1: 330
- O=C(Nc1cc(Cl)c(Cl)cc1Cl)c1c[nH]nn1: 760
- Cc1ccc(NC(=O)c2c[nH]nn2)cc1F: 9400
- O=C(Nc1ccc(Cl)c(Cl)c1)c1c[nH]nn1: 1600

1. O=C(Nc1ccc(C(F)(F)F)cc1C(F)(F)F)c1c[nH]nn1
2. O=C(Nc1ccc(Cl)cc1C(F)(F)F)c1c[nH]nn1
3. O=C(Nc1ccc(Cl)cn1)c1c[nH]nn1
Query string: Order the records, beginning with the lowest IC50 and ending with the highest. Form entry: ranked labels (order as requested).
Result string: 2, 1, 3
(2: 250 nM, 1: 1160 nM, 3: 1800 nM)

---

# study target: UniProtKB P16050
# procedure summary: 15-lipoxygenase inhibition assay (arachidonic acid oxidation, 15-HPETE/15-HETE measured by reverse phase HPLC)
# Type: biochemical
measurement label: IC50 (µM)
Give just the numeric value; µM need not be written.

Query string: Which measured IC50 belongs to O=C(Nc1cnc2ccccc2c1)c1cn[nH]n1 , tested on UniProtKB P16050?
Result string: 1.4
